# ASSAY_TARGET: Mitogen-activated protein kinase kinase kinase kinase 1 (Homo sapiens, UniProt Q92918); note: in the data inactive means no Kd found up to 30 µM
# Sequence (Q92918 whole entry): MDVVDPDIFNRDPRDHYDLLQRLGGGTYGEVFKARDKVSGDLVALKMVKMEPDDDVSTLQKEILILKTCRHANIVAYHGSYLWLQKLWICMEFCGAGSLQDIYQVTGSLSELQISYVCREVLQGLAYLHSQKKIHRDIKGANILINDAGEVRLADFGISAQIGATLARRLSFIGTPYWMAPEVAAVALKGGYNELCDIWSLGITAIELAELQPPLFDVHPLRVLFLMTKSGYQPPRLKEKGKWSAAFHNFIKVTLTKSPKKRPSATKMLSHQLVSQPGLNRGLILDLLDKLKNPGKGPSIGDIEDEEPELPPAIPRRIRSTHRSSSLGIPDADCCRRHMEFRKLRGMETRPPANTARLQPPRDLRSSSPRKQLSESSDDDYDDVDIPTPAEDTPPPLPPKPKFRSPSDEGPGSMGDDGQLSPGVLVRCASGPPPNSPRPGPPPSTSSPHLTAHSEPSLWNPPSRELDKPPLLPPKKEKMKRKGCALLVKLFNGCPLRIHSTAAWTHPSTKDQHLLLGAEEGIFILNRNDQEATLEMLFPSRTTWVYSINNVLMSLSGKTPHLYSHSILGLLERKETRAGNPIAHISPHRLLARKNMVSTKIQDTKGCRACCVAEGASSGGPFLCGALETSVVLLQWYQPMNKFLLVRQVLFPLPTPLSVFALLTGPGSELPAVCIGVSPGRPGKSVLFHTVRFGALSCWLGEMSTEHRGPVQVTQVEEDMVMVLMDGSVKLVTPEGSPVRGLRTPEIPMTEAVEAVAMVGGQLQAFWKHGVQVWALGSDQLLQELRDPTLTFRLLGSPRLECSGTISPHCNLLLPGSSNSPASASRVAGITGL
Calls of active or inactive are those of the source.
Give one outcome, nothing more. List: 1.0 = active, 0.0 = inactive

>  <COMPOUND>
CO[C@H]1C[C@@H]2CC[C@@H](C)[C@@](O)(O2)C(=O)C(=O)N2CCCC[C@H]2C(=O)O[C@H]([C@H](C)C[C@@H]2CC[C@@H](OCCO)[C@H](OC)C2)CC(=O)[C@H](C)/C=C(\C)[C@@H](O)[C@@H](OC)C(=O)[C@H](C)C[C@H](C)/C=C/C=C/C=C/1C

>  <ASSAY_TARGET>
Mitogen-activated protein kinase kinase kinase kinase 1 (Homo sapiens, UniProt Q92918); note: in the data inactive means no Kd found up to 30 µM

>  <LABEL>
0.0

$$$$
>  <COMPOUND>
CCc1cnn2c(NCc3ccc[n+]([O-])c3)cc(N3CCCC[C@H]3CCO)nc12

>  <ASSAY_TARGET>
Mitogen-activated protein kinase kinase kinase kinase 1 (Homo sapiens, UniProt Q92918); note: in the data inactive means no Kd found up to 30 µM

>  <LABEL>
0.0

$$$$
>  <COMPOUND>
CC[C@H](Nc1ncnc2[nH]cnc12)c1nc2cccc(F)c2c(=O)n1-c1ccccc1

>  <ASSAY_TARGET>
Mitogen-activated protein kinase kinase kinase kinase 1 (Homo sapiens, UniProt Q92918); note: in the data inactive means no Kd found up to 30 µM

>  <LABEL>
0.0

$$$$
>  <COMPOUND>
CC[C@@H]1C(=O)N(C)c2cnc(Nc3ccc(C(=O)N[C@H]4CC[C@H](N5CCN(CC6CC6)CC5)CC4)cc3OC)nc2N1C(C)C

>  <ASSAY_TARGET>
Mitogen-activated protein kinase kinase kinase kinase 1 (Homo sapiens, UniProt Q92918); note: in the data inactive means no Kd found up to 30 µM

>  <LABEL>
0.0

$$$$
>  <COMPOUND>
Cc1cc2c(F)c(Oc3ncnn4cc(OC[C@@H](C)OC(=O)[C@H](C)N)c(C)c34)ccc2[nH]1 [BRIVANIB ALANINATE]

>  <ASSAY_TARGET>
Mitogen-activated protein kinase kinase kinase kinase 1 (Homo sapiens, UniProt Q92918); note: in the data inactive means no Kd found up to 30 µM

>  <LABEL>
0.0

$$$$

Task item: Returns: the outcome recorded for Cn1cc(-c2ccc(F)c(C(F)(F)F)c2)nc1C1CCN(c2ncnc3[nH]ncc23)CC1 in this assay.
Reply: 0.0

Task item: Also, CCn1c(=O)c(-c2cc[nH]n2)cc2c(C)nc(N)nc21 please.
Reply: 0.0

Task item: Also, COC(=O)N[C@@H](C)CNc1nccc(-c2cn(C(C)C)nc2-c2cc(Cl)cc(NS(C)(=O)=O)c2F)n1 please.
Reply: 0.0

Task item: Also, Cc1ccc(S(=O)(=O)Nc2nc3ccccc3nc2Nc2ccc3nsnc3c2)cc1 please.
Reply: 0.0

====

# ASSAY_TARGET: cAMP-dependent protein kinase catalytic subunit beta (Homo sapiens, UniProt P22694); note: in the data inactive means no Kd found up to 30 µM
Calls of active or inactive are those of the source.
ATTRIBUTE_MEASURED: Kd

Solved entries:
>  <MOLECULE>
O=C(Nc1ccc(-c2ccnc(Nc3ccc(N4CCOCC4)cc3)n2)cc1)C1CCCN1 (stereo unspecified)

>  <RESULT>
> 30 µM (inactive)

$$$$
>  <MOLECULE>
CCS(=O)(=O)N1CC(CC#N)(n2cc(-c3ncnc4[nH]ccc34)cn2)C1

>  <RESULT>
> 30 µM (inactive)

$$$$
>  <MOLECULE>
C1=C/COCc2cc(ccc2OCCN2CCCC2)Nc2nccc(n2)-c2cccc(c2)COC/1

>  <RESULT>
> 30 µM (inactive)

$$$$
>  <MOLECULE>
C[C@@H](c1ccc2nccn2c1)n1nnc2ncc(-c3cnn(C)c3)nc21

>  <RESULT>
> 30 µM (inactive)

$$$$

Task item: Look up Kd for this molecule: CC[C@@H]1C(=O)N(C)c2cnc(Nc3ccc(C(=O)N[C@H]4CC[C@H](N5CCN(CC6CC6)CC5)CC4)cc3OC)nc2N1C(C)C
Reply: > 30 µM (inactive)

Task item: Also, Cc1cc(-c2cc(O)ccc2Cl)cc2nnc(Nc3ccc(OCCN4CCCC4)cc3)nc12 please.
Reply: > 30 µM (inactive)

Task item: Also, CCc1cnn2c(NCc3ccc[n+]([O-])c3)cc(N3CCCC[C@H]3CCO)nc12 please.
Reply: > 30 µM (inactive)

Task item: Also, Cn1cc(-c2ccc(F)c(C(F)(F)F)c2)nc1C1CCN(c2ncnc3[nH]ncc23)CC1 please.
Reply: > 30 µM (inactive)

Task item: Also, N[C@@H]1CCCN(c2c(/C=C3\SC(=O)NC3=O)cccc2-c2ccccc2)C1 please.
Reply: > 30 µM (inactive)

Task item: Also, CNC(=O)c1ccc(-c2cnc3ncc(Cc4ccc5ncccc5c4)n3n2)cc1F please.
Reply: > 30 µM (inactive)

====

# ASSAY_TARGET: cAMP-dependent protein kinase catalytic subunit alpha (Homo sapiens, UniProt P17612); note: in the data inactive means no Kd found up to 30 µM
The source made the active and inactive calls.
Give one outcome, nothing more. List: active, inactive

>  <SMILES_REPRESENTATION>
COc1cc(N2CCC(N3CCN(C)CC3)CC2)ccc1Nc1ncnc(Nc2ccccc2S(=O)(=O)C(C)C)n1

>  <LABEL>
inactive

$$$$
>  <SMILES_REPRESENTATION>
CC[C@H](Nc1ncnc2[nH]cnc12)c1nc2cccc(F)c2c(=O)n1-c1ccccc1

>  <LABEL>
inactive

$$$$
>  <SMILES_REPRESENTATION>
CCn1c(=O)c(-c2cc[nH]n2)cc2c(C)nc(N)nc21

>  <LABEL>
inactive

$$$$
>  <SMILES_REPRESENTATION>
Cn1ncc(Cl)c1-c1cc(C(=O)N[C@H](CN)Cc2cccc(F)c2)sc1Cl

>  <LABEL>
active

$$$$
>  <SMILES_REPRESENTATION>
CNC(=O)c1ccc(C)c(-n2c(C)cc(OCc3ccc(F)cc3F)c(Br)c2=O)c1

>  <LABEL>
inactive

$$$$

Task item: Returns: the outcome recorded for O=C(O)[C@]1(Cc2cccc(Nc3nccs3)n2)CC[C@@H](Oc2cccc(Cl)c2F)CC1 in this assay.
Reply: inactive

Task item: Also, CNC(=O)c1ccc(-c2cnc3ncc(Cc4ccc5ncccc5c4)n3n2)cc1F please.
Reply: inactive

====

The source made the active and inactive calls.
As a worked illustration, we turn to Kd data collected for DNA topoisomerase 2-alpha (Homo sapiens, UniProt P11388).

Solved entries:
>  <SMILES_REPRESENTATION>
Cc1ccc(-n2nc(C(C)(C)C)cc2NC(=O)NCc2cc(F)ccc2Oc2ccc3c(cnn3CCO)c2)cc1

>  <ASSAY_TARGET>
DNA topoisomerase 2-alpha (Homo sapiens, UniProt P11388); note: in the data inactive means no Kd found up to 30 µM
Sequence (P11388 whole entry): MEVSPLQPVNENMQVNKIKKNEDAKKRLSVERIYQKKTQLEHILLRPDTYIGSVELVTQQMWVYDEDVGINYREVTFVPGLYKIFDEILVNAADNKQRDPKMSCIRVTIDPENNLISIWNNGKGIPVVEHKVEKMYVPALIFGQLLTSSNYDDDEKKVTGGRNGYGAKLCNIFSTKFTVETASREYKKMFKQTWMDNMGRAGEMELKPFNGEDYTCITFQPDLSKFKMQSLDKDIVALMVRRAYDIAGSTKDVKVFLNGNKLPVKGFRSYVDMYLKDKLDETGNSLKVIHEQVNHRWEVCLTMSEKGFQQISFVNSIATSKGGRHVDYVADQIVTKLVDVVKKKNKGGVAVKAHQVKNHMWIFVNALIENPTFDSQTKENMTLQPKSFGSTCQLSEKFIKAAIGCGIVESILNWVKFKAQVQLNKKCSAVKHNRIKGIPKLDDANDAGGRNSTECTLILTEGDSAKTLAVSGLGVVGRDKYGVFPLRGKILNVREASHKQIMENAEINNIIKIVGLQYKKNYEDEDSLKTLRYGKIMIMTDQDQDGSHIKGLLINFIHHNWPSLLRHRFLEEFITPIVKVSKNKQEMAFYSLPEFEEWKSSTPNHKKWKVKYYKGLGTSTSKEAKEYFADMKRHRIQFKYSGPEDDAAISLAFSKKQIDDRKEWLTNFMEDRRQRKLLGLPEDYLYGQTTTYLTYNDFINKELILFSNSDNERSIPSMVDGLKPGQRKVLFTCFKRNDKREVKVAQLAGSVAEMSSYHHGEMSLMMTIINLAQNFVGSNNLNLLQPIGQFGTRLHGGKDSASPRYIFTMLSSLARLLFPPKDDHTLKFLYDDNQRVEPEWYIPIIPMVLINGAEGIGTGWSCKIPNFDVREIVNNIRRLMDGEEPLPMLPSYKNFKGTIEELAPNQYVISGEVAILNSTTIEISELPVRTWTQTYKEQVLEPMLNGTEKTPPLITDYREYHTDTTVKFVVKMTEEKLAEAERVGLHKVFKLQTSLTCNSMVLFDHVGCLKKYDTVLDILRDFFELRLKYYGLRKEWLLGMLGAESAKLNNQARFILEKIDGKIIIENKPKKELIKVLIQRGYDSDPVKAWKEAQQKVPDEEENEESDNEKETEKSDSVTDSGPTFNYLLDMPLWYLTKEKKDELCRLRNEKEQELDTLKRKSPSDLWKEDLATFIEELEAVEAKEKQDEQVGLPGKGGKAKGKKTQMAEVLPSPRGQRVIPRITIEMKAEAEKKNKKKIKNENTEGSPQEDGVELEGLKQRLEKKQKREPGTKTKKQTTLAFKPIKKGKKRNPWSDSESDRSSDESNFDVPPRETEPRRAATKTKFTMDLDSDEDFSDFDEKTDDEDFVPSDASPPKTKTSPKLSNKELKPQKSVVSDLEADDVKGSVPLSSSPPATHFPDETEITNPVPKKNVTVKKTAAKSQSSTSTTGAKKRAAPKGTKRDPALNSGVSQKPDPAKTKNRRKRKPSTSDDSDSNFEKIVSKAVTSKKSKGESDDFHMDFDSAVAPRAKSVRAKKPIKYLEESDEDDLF

>  <Kd>
> 30 µM (inactive)

$$$$
>  <SMILES_REPRESENTATION>
Cn1cc(-c2ccc3nnc(C(F)(F)c4ccc5ncccc5c4)n3n2)cn1

>  <ASSAY_TARGET>
DNA topoisomerase 2-alpha (Homo sapiens, UniProt P11388); note: in the data inactive means no Kd found up to 30 µM

>  <Kd>
> 30 µM (inactive)

$$$$
>  <SMILES_REPRESENTATION>
CN1CCC(CNc2ccc3ncc(-c4cccc(OC(F)(F)F)c4)n3n2)CC1

>  <ASSAY_TARGET>
DNA topoisomerase 2-alpha (Homo sapiens, UniProt P11388); note: in the data inactive means no Kd found up to 30 µM

>  <Kd>
> 30 µM (inactive)

$$$$
>  <SMILES_REPRESENTATION>
O=c1sn(-c2cccc3ccccc23)c(=O)n1Cc1ccccc1

>  <ASSAY_TARGET>
DNA topoisomerase 2-alpha (Homo sapiens, UniProt P11388); note: in the data inactive means no Kd found up to 30 µM

>  <Kd>
> 30 µM (inactive)

$$$$
>  <SMILES_REPRESENTATION>
Cn1ncc(Cl)c1-c1cc(C(=O)N[C@H](CN)Cc2cccc(F)c2)sc1Cl

>  <ASSAY_TARGET>
DNA topoisomerase 2-alpha (Homo sapiens, UniProt P11388); note: in the data inactive means no Kd found up to 30 µM

>  <Kd>
> 30 µM (inactive)

$$$$
>  <SMILES_REPRESENTATION>
CC[C@H](Nc1ncnc2[nH]cnc12)c1nc2cccc(F)c2c(=O)n1-c1ccccc1

>  <ASSAY_TARGET>
DNA topoisomerase 2-alpha (Homo sapiens, UniProt P11388); note: in the data inactive means no Kd found up to 30 µM

>  <Kd>
> 30 µM (inactive)

$$$$
>  <SMILES_REPRESENTATION>
COC(=O)N[C@@H](C)CNc1nccc(-c2cn(C(C)C)nc2-c2cc(Cl)cc(NS(C)(=O)=O)c2F)n1

>  <ASSAY_TARGET>
DNA topoisomerase 2-alpha (Homo sapiens, UniProt P11388); note: in the data inactive means no Kd found up to 30 µM

>  <Kd>
> 30 µM (inactive)

$$$$
>  <SMILES_REPRESENTATION>
COc1cc(N2CCC(N3CCN(C)CC3)CC2)ccc1Nc1ncnc(Nc2ccccc2S(=O)(=O)C(C)C)n1

>  <ASSAY_TARGET>
DNA topoisomerase 2-alpha (Homo sapiens, UniProt P11388); note: in the data inactive means no Kd found up to 30 µM

>  <Kd>
> 30 µM (inactive)

$$$$

Task item: Look up Kd for this compound: CN(C)C(=O)c1cc2cnc(Nc3ccc(N4CCNCC4)cn3)nc2n1C1CCCC1
Reply: > 30 µM (inactive)

Task item: Also, CC(=O)Nc1cccc(-n2c(=O)n(C3CC3)c(=O)c3c(Nc4ccc(I)cc4F)n(C)c(=O)c(C)c32)c1 please.
Reply: > 30 µM (inactive)

Task item: Also, COCCNCc1ccc(-c2cc3nccc(Oc4ccc(NC(=S)NC(=O)Cc5ccc(F)cc5)cc4F)c3s2)nc1 please.
Reply: > 30 µM (inactive)

Task item: Also, CCCS(=O)(=O)Nc1ccc(F)c(C(=O)c2c[nH]c3ncc(-c4ccc(Cl)cc4)cc23)c1F please.
Reply: > 30 µM (inactive)

Task item: Also, C=CC(=O)N1CCC(Oc2cc3c(Nc4ccc(Cl)c(Cl)c4F)ncnc3cc2OC)CC1 please.
Reply: > 30 µM (inactive)
